- tested on: bovine trypsin (Bos taurus)
- Sequence (P00760 24-246): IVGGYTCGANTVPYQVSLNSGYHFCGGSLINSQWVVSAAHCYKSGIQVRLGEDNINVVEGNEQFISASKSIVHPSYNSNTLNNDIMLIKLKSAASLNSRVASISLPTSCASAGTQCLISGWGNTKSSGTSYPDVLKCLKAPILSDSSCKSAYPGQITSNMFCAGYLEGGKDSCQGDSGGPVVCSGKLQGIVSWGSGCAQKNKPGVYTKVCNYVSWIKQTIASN
- assay comment: Trypsin inhibitory activity of peptides (BApNA hydrolysis, OD405; IC50, Ki, residual activity)
- Assay type: biochemical
- recorded conditions: peptide 0.0098 μM
Bridge positions count the residues as written; N and C are the ends. Square brackets hold non-standard residues; d marks the D form. Peptide text beside a SMILES is read from it. Nle = CCCC[C@H](N)C(=O)O
Recorded Residual trypsin activity by entry
Just the number please, in %, no unit attached.

Sample answers from the record:
>  <compound>
CC[C@H](C)[C@@H]1NC(=O)[C@@H]2CCCN2C(=O)[C@@H]2CCCN2C(=O)[C@H]([C@@H](C)CC)NC(=O)[C@H](CO)NC(=O)[C@H](CCCCN)NC(=O)[C@H]([C@@H](C)O)NC(=O)[C@H](C)NC(=O)[C@H](CCCNC(=N)N)NC(=O)[C@@H]2CCCN2C(=O)[C@@H](N)CSSC[C@@H](C(=O)N[C@@H](Cc2ccccc2)C(=O)O)NC1=O [BT66] (H-CPRATKSIPPICF-OH; disulfide 1-12; C-terminus assumed)

>  <measured number>
106.2

$$$$
>  <compound>
CC[C@H](C)[C@@H]1NC(=O)[C@@H]2CCCN2C(=O)[C@@H]2CCCN2C(=O)[C@H]([C@@H](C)CC)NC(=O)[C@H](CO)NC(=O)[C@H](CCCNC(=N)N)NC(=O)[C@H]([C@@H](C)O)NC(=O)[C@H](C)NC(=O)[C@H](CCCNC(=N)N)NC(=O)CNC(=O)[C@@H](N)CSSC[C@@H](C(=O)N[C@@H](Cc2ccccc2)C(=O)O)NC1=O [BT17] (H-CGRATRSIPPICF-OH; disulfide 1-12; C-terminus assumed)

>  <measured number>
97.5

$$$$
>  <compound>
CC[C@H](C)[C@@H]1NC(=O)[C@@H]2CCCN2C(=O)[C@@H]2CCCN2C(=O)[C@H]([C@@H](C)CC)NC(=O)[C@H](CO)NC(=O)[C@H](CCCCN)NC(=O)[C@H]([C@@H](C)O)NC(=O)[C@H](CO)NC(=O)[C@H](CCCNC(=N)N)NC(=O)CNC(=O)[C@@H](N)CSSC[C@@H](C(=O)N[C@@H](Cc2ccccc2)C(=O)O)NC1=O [BT47] (H-CGRSTKSIPPICF-OH; disulfide 1-12; C-terminus assumed)

>  <measured number>
107.9

$$$$
>  <compound>
CCCC[C@@H]1NC(=O)[C@H](CO)NC(=O)[C@H](CCCCN)NC(=O)[C@H]([C@@H](C)O)NC(=O)[C@H](C)NC(=O)[C@H](CCCNC(=N)N)NC(=O)CNC(=O)[C@@H](N)CSSC[C@@H](C(=O)N[C@@H](Cc2ccccc2)C(=O)O)NC(=O)[C@H]([C@@H](C)CC)NC(=O)[C@@H]2CCCN2C(=O)[C@@H]2CCCN2C1=O [BT28] (H-CGRATKS[Nle]PPICF-OH; disulfide 1-12; C-terminus assumed)

>  <measured number>
101.8

$$$$
>  <compound>
CC[C@H](C)[C@@H]1NC(=O)[C@@H]2CCCN2C(=O)[C@@H]2CCCN2C(=O)[C@H]([C@@H](C)CC)NC(=O)[C@H](CO)NC(=O)[C@H](CCCCN)NC(=O)[C@H]([C@@H](C)O)NC(=O)[C@H](Cc2ccc(O)cc2)NC(=O)[C@H](CCCNC(=N)N)NC(=O)CNC(=O)[C@@H](N)CSSC[C@@H](C(=O)N[C@@H](Cc2ccccc2)C(=O)O)NC1=O [BT53] (H-CGRYTKSIPPICF-OH; disulfide 1-12; C-terminus assumed)

>  <measured number>
106.0

$$$$
>  <compound>
CC[C@H](C)[C@@H]1NC(=O)[C@@H]2CCCN2C(=O)[C@@H]2CCCN2C(=O)[C@H]([C@@H](C)CC)NC(=O)[C@H](CO)NC(=O)[C@H](CCCCN)NC(=O)[C@H]([C@@H](C)O)NC(=O)[C@@H](NC(=O)[C@@H](N)CCCNC(=N)N)CSSC[C@@H](C(=O)N[C@@H](Cc2ccccc2)C(=O)O)NC1=O [BT45] (H-RCTKSIPPICF-OH; disulfide 2-10; C-terminus assumed)

>  <measured number>
100.7

$$$$
>  <compound>
CC[C@H](C)[C@@H]1NC(=O)[C@@H]2CCCN2C(=O)[C@@H]2CCCN2C(=O)[C@H]([C@@H](C)CC)NC(=O)[C@H](CO)NC(=O)[C@H](CCCCN)NC(=O)[C@H]([C@@H](C)O)NC(=O)[C@H](C)NC(=O)[C@H](CCCNC(=N)N)NC(=O)[C@H](C)NC(=O)[C@@H](N)CSSC[C@@H](C(=O)N[C@@H](Cc2ccccc2)C(=O)O)NC1=O [BT67] (H-CARATKSIPPICF-OH; disulfide 1-12)

>  <measured number>
102.0

$$$$

Here's the next entry for you.
Consider the compound shown here: CC[C@H](C)[C@@H]1NC(=O)[C@@H]2CCCN2C(=O)[C@@H]2CCCN2C(=O)[C@H]([C@@H](C)CC)NC(=O)[C@H](CO)NC(=O)[C@H](CCCCN)NC(=O)[C@H]([C@@H](C)O)NC(=O)[C@H](C)NC(=O)[C@H]([C@@H](C)O)NC(=O)CNC(=O)[C@@H](N)CSSC[C@@H](C(=O)N[C@@H](Cc2ccccc2)C(=O)O)NC1=O [BT25] (H-CGTATKSIPPICF-OH; disulfide 1-12; C-terminus assumed) What is its recorded Residual trypsin activity?
99.6

* * *

// each record: one item and its pIC50 for α-chymotrypsin (Bos taurus)
Bridge positions count the residues as written; N and C are the ends. Square brackets hold non-standard residues; d marks the D form. Peptide text beside a SMILES is read from it. Hyp = O=C(O)[C@@H]1C[C@@H](O)CN1
Lab note — pIC50 values are minus log10 of concentrations in M.

>  <compound>
CSCC[C@@H]1NC(=O)[C@H](CO)NC(=O)[C@H](Cc2ccc(O)cc2)NC(=O)[C@H]([C@@H](C)O)NC(=O)[C@@H](NC(=O)[C@@H](N)Cc2ccccc2)CSSC[C@@H](C(=O)N[C@H](C(=O)O)C(C)C)NC(=O)[C@H](Cc2c[nH]cn2)NC(=O)[C@@H]2CCCN2C(=O)[C@@H]2CCCN2C1=O [CH41] (H-FCTYSMPPHCV-OH; disulfide 2-10; N-terminus and C-terminus assumed)

>  <pIC50>
5.59

$$$$

Consider the compound shown here: CC[C@H](C)[C@@H]1NC(=O)[C@H](CO)NC(=O)[C@H](Cc2ccc(O)cc2)NC(=O)[C@H]([C@@H](C)O)NC(=O)[C@H](C)NC(=O)[C@H](CO)NC(=O)CNC(=O)[C@@H](N)CSSC[C@@H](C(=O)N[C@@H](Cc2ccc(O)cc2)C(=O)O)NC(=O)[C@H](CCC(N)=O)NC(=O)[C@@H]2CCCN2C(=O)[C@@H]2CCCN2C1=O [CH9] (H-CGSATYSIPPQCY-OH; disulfide 1-12; N-terminus and C-terminus assumed) What is its recorded pIC50?
4.55

Note, next up: CC[C@H](C)[C@@H]1NC(=O)[C@H](CO)NC(=O)[C@H](Cc2ccc(O)cc2)NC(=O)[C@H]([C@@H](C)O)NC(=O)[C@@H](NC(=O)[C@@H](N)Cc2ccccc2)CSSC[C@@H](C(=O)N[C@@H](Cc2ccc(O)cc2)C(=O)NCC(=O)O)NC(=O)[C@H](CCC(N)=O)NC(=O)[C@@H]2C[C@@H](O)CN2C(=O)[C@@H]2CCCN2C1=O [CH52] (H-FCTYSIP[Hyp]QCYG-OH; disulfide 2-10)
6.08

Note, next up: CC[C@H](C)[C@H](N)C(=O)N[C@H]1CSSC[C@@H](C(=O)N[C@H](C(=O)O)[C@@H](C)CC)NC(=O)[C@H](CCC(N)=O)NC(=O)[C@H](C)NC(=O)[C@@H]2CCCN2C(=O)[C@H]([C@@H](C)CC)NC(=O)[C@H](CO)NC(=O)[C@H](Cc2ccccc2)NC(=O)[C@H]([C@@H](C)O)NC1=O [CH38] (H-ICTFSIPAQCI-OH; disulfide 2-10; N-terminus and C-terminus assumed)
5.30

Note, next up: CC[C@H](C)[C@@H]1NC(=O)[C@H](CO)NC(=O)[C@H](Cc2ccc(O)cc2)NC(=O)[C@H]([C@@H](C)O)NC(=O)[C@@H](NC(=O)[C@@H](N)Cc2ccccc2)CSSC[C@@H](C(=O)N[C@@H](Cc2ccc(O)cc2)C(=O)O)NC(=O)[C@H](CCC(N)=O)NC(=O)[C@H](C)NC(=O)[C@@H]2CCCN2C1=O [CH37] (H-FCTYSIPAQCY-OH; disulfide 2-10; N-terminus and C-terminus assumed)
5.74

Note, next up: CC[C@H](C)[C@@H]1NC(=O)[C@H](CO)NC(=O)[C@H](Cc2ccc(O)cc2)NC(=O)[C@H]([C@@H](C)O)NC(=O)[C@H](C)NC(=O)[C@H](C)NC(=O)CNC(=O)[C@@H](N)CSSC[C@@H](C(=O)N[C@@H](Cc2ccccc2)C(=O)O)NC(=O)[C@H](CCCCN)NC(=O)[C@H](C)NC(=O)[C@@H]2CCCN2C1=O [CH31] (H-CGAATYSIPAKCF-OH; disulfide 1-12; N-terminus and C-terminus assumed)
5.22

Note, next up: C[C@@H]1NC(=O)[C@@H](NC(=O)[C@@H](N)Cc2ccccc2)CSSC[C@@H](C(=O)N[C@@H](CCC(N)=O)C(=O)O)NC(=O)[C@H](CCCCN)NC(=O)[C@@H]2CCCN2C(=O)[C@@H]2CCCN2C(=O)[C@H](CC(N)=O)NC(=O)[C@H](CO)NC(=O)[C@H](Cc2ccc(O)cc2)NC1=O [CH44] (H-FCAYSNPPKCQ-OH; disulfide 2-10; N-terminus and C-terminus assumed)
4.70

Note, next up: C[C@@H]1NC(=O)[C@@H](NC(=O)[C@@H](N)Cc2ccccc2)CSSC[C@@H](C(=O)N[C@@H](CCC(N)=O)C(=O)O)NC(=O)[C@H](CCC(N)=O)NC(=O)[C@@H]2CCCN2C(=O)[C@@H]2CCCN2C(=O)[C@H](CC(N)=O)NC(=O)[C@H](CO)NC(=O)[C@H](Cc2ccc(O)cc2)NC1=O [CH43] (H-FCAYSNPPQCQ-OH; disulfide 2-10; N-terminus and C-terminus assumed)
5.04

Note, next up: CSCC[C@H](N)C(=O)N[C@H]1CSSC[C@@H](C(=O)N[C@H](C(=O)O)C(C)C)NC(=O)[C@H](CCCCN)NC(=O)[C@H](C)NC(=O)[C@@H]2CCCN2C(=O)[C@H](Cc2c[nH]cn2)NC(=O)[C@H](CO)NC(=O)[C@H](Cc2ccccc2)NC(=O)[C@H]([C@@H](C)O)NC1=O [CH49] (H-MCTFSHPAKCV-OH; disulfide 2-10; N-terminus and C-terminus assumed)
4.64
